# systemName: hMPV F protein of hMPV CAN/97-83 (genotype A) (human metapneumovirus, UniProt Q6WB98 19-539)
# Sequence (Q6WB98 19-539): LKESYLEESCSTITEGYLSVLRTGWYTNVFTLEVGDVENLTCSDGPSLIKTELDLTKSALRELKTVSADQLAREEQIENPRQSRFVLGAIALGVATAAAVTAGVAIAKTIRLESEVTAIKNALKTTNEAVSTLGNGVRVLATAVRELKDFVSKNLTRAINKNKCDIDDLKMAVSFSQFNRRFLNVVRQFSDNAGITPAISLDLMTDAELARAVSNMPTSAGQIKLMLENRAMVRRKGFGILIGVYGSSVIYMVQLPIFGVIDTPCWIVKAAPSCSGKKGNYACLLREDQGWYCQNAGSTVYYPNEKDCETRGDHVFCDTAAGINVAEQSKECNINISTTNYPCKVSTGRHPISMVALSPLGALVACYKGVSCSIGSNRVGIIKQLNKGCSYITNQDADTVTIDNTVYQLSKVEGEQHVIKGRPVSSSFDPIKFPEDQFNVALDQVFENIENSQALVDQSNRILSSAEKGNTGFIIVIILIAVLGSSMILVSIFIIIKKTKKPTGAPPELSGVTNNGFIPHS
# assayInfo: cell-based or functional assay
readoutName: neutralizing activity, plaque-reduction assay

Look up neutralizing activity, plaque-reduction assay for this binder: MPV488 (antibody, V domains shown) VH: EVQLVQSGFEVKKPGASVKVSCKASGYNFNNYGISWVRQAPGQGLEWMGWISAYTGNTNEAQKFQGRVSMTTDTSTSTAYMEVRSLRSDDTAVYYCARDIGSSMFYSYFYGMDVWGQGTTVIVSS VL: SLSVSLGERATINCKSSESVLYNSNNENYLDWYQQKPGQPPKLLIYWASTRASGVPDRFSGSASGTDFTLTISSLQAEDVAVYYCQQYYSTPRTFGQGTKVEIK < 20 ng/mL

Sourced from patent US20250188153A1
